Test: Inhibition of recombinant perforin (unknown origin) mediated lysis of human Jurkat cells pre-incubated for 30 mins with perforin followed by incubation with Jurkat cells at 37 degC for 4 hrs assessed as 51Cr release by gamma counting analysis
pIC50: −log10 of the molar value.
result_type: pIC50

Request: Supply pIC50 value. Item: "O=C1OCc2cc(-c3ccc(-c4ccc(CO)cc4)s3)ccc21"
Result: 6.05

Request: Return pIC50 for the following compound: "NC(=O)c1ccc(-c2ccc(-c3ccc4c(c3)COC4=O)s2)cc1N"
Result: 5.92

---

Assay: Inhibition of recombinant perforin (unknown origin) mediated lysis of human Jurkat cells pre-incubated for 30 mins with perforin followed by incubation with Jurkat cells at 37 degC for 4 hrs assessed as 51Cr release by gamma counting analysis
pIC50: −log10 of the molar value.
result_type: pIC50

Past entries and their recorded results:
Request: Fill in reported pIC50 for this entry: "NC(=O)c1ccc(-c2ccc(-c3ccc4c(c3)COC4=O)s2)cn1"
Result: 6.04

Request: Specify pIC50 for "O=C1OCc2cc(-c3ccc(-c4ccc5c(c4)COC5=O)s3)ccc21" and stop.
Result: 5.20

Request: Return reported pIC50. Input compound: "NC(=O)c1ccc(-c2ccc(-c3ccc4c(c3)CNC4=O)s2)cc1"
Result: 5.22

Request: Given "Nc1cccc(-c2ccc(-c3ccc4c(c3)COC4=O)s2)c1" , respond with its pIC50.
Result: 4.85

A = NC(=O)c1cccc(-c2ccc(-c3ccc4c(c3)COC4=O)s2)c1
B = CCOC(=O)c1ccc(-c2ccc(-c3ccc4c(c3)COC4=O)s2)cc1
Request: Would you mind telling me which has the lower recorded pIC50 between A and B ? To answer, give the label that identifies your chosen option.
Result: B
(B: 4.96, A: 5.53)

P = CS(=O)(=O)Nc1ccc(-c2ccc(-c3ccc4c(c3)COC4=O)s2)cc1
Q = NS(=O)(=O)c1cccc(-c2ccc(-c3ccc4c(c3)COC4=O)s2)c1
R = O=C(NCCN1CCOCC1)c1ccc(-c2ccc(-c3ccc4c(c3)COC4=O)s2)cc1O
S = NC(=O)CNC(=O)c1ccc(-c2ccc(-c3ccc4c(c3)COC4=O)s2)cc1O
T = NC(=O)c1ccc(-c2ccc(-c3ccc4c(c3)COC4=O)s2)cc1
Request: With regard to pIC50, arrange the entries in ascending order, please. Write the labels, ordered according to the request.
Result: R, Q, S, P, T
(R: 4.89, Q: 5.31, S: 5.58, P: 5.96, T: 6.74)

P = N#Cc1ccc(-c2ccc(-c3ccc4c(c3)COC4=O)s2)cc1
Q = Nc1cc(-c2ccc(-c3ccc4c(c3)COC4=O)s2)ccc1C(=O)NCCN1CCOCC1
Request: Could you check which of P and Q has a smaller value for pIC50? Refer to your chosen item by its label in the answer.
Result: Q

A = O=C(NCCO)c1ccc(-c2ccc(-c3ccc4c(c3)COC4=O)s2)cc1O
B = Nc1ccc(-c2ccc(-c3ccc4c(c3)COC4=O)s2)cc1
Request: Which is greater in pIC50, the first item A or the second item B ? Kindly state the label of the option you pick.
Result: A

A = NC(=O)CCNC(=O)c1ccc(-c2ccc(-c3ccc4c(c3)COC4=O)s2)cc1O
B = N#Cc1cccc(-c2ccc(-c3ccc4c(c3)COC4=O)s2)c1
C = NC(=O)c1ccc(-c2ccc(-c3ccc4c(c3)COC4=O)s2)cc1O
Request: Rank entries according to their pIC50, from the largest number down. To answer, write out the labels according to the requested order.
Result: C, A, B

A = CNC(=O)c1ccc(-c2ccc(-c3ccc4c(c3)COC4=O)s2)cc1
B = O=C1OCc2cc(-c3ccc(-c4ccncc4)s3)ccc21
Request: Return label of the item with the larger pIC50. Candidates: A , B . Give the label under which the chosen entry appears.
Result: B

A = COc1ccc(-c2ccc(-c3ccc4c(c3)COC4=O)s2)cc1
B = Nc1cc(-c2ccc(-c3ccc4c(c3)COC4=O)s2)ccc1C(=O)O
Request: Just tell me: smaller pIC50 value, A or B ? Please respond with the label that marks your chosen entry.
Result: A
(A: 5.03, B: 5.23)

Values from BindingDB's records for doi:10.1016/j.bmcl.2015.12.003
